# System: UACC-257 melanoma
# testDescription: NCI tumour cell line growth inhibition, 48 h
Where a SMILES comes first, the peptide text is derived from it. [ ]: non-standard residue; d: D form. The star is where a group is joined. ξ: configuration not given here. ξD = NC(CC(=O)O)C(=O)O; Ac3c = NC1(C(=O)O)CC1; Boc = CC(C)(C)OC(=O)*; OtBu = CC(C)(C)O*
Classification field: satisfied = TGI at or over 30 µM; not satisfied = TGI under 30 µM.

INSERT INTO results (molecule, category) VALUES
  ('Cc1ccc(S(=O)(=O)c2ccc([N+](=O)[O-])o2)cc1', 'not satisfied'),
  ('COC1(C)C(=O)N2C1N(C(=O)OCc1ccccc1)CC2(C)C (stereo not given)', 'satisfied'),
  ('CN1CCc2c1nc(-c1cccnc1)c1c2N(C)CC1', 'satisfied'),
  ('N#CC12C(=O)N3C(=NC(c4ccccc4)NC3c3ccccc3)C1(C#N)C(c1ccccc1)NC1=C2CCCC1 (stereo not given)', 'satisfied'),
  ('CN(c1ccc(C#N)c(Cl)c1)C1CCC(NC(=O)c2ccc(N3CCN(C4CN(c5ccc6c(c5)C(=O)N(C5CCC(=O)NC5=O)C6=O)C4)CC3)cc2)CC1 (stereo not given)', 'satisfied'),
  ('Nc1cc2cccc[n+]2c2cccc(Cl)c12', 'not satisfied'),
  ('C=C(Br)CNCC(=C)Br', 'satisfied'),
  ('S=C(N/N=C\c1ccccn1)N(Cc1ccccn1)Cc1ccccn1', 'satisfied'),
  ('c1csc(-c2csc(-c3ccsc3)c2)c1', 'satisfied'),
  ('CCN(CC)CCCC(C)Nc1c(-c2ccccc2)cnc2cc(Cl)ccc12 (stereo not given)', 'not satisfied'),
  ('C=C1C(=O)O[C@H]2[C@H]1CC/C(CNC(=O)/C=C/c1ccccc1)=C\CC[C@@]1(C)O[C@@H]21', 'not satisfied'),
  ('CC(=O)NNc1nc(C)c(C(=O)/C=C/c2ccc(/C=C/C(=O)c3sc(NNC(C)=O)nc3C)cc2)s1', 'satisfied'),
  ('COC/N=C(/N)NC#N', 'satisfied'),
  ('N/C(=N\c1nc2ccccc2s1)NC(=NC1CCCCC1)NC1CCCCC1', 'not satisfied'),
  ('COc1ccc(-c2ccc(/C=N/n3c(COc4ccccc4Cl)n[nH]c3=S)o2)c([N+](=O)[O-])c1', 'satisfied'),
  ('O=NN(CCCl)C(=O)NC1CCC(=O)NC1=O (stereo not given)', 'satisfied'),
  ('COC(=O)/C(C#N)=C1\CCc2ccccc21', 'satisfied'),
  ('CC1=C(Cl)C[C@@H](/C(C)=C\Cl)O[C@@]1(O)C(Br)Br', 'satisfied'),
  ('C=CCCCOC1[C@H](OCc2ccccc2)C(OCc2ccccc2)C(OC)O[C@@H]1CNC(=O)c1cccc(I)c1 (stereo not given in full)', 'satisfied'),
  ('COC(=O)C1(NC(=O)C(CC(=O)OC(C)(C)C)NC(=O)OC(C)(C)C)CC1 (stereo not given) (Boc-[ξD](OtBu)-[Ac3c]-OMe)', 'satisfied'),
  ('COc1cc(OC)cc(-n2c(N)c(-c3nc4ccccc4n3C)c3ccc([N+](=O)[O-])cc3c2=O)c1', 'satisfied'),
  ('O=C1NC2CCCCC2N=C1/C(C(=O)c1ccccc1)=C(\O)c1ccccc1 (stereo not given)', 'satisfied'),
  ('COc1ccc(-c2onc(-c3c(C)cc(C)cc3C)c2C2=NCCN2)cc1', 'satisfied'),
  ('C[C@H]1c2ccccc2CN1CCCOc1cc2c(cc1OCC1CC1)C1(CCCC1)C(N)=N2', 'not satisfied'),
  ('COC(=O)/C=C/c1cc(OC)c2oc(-c3ccc(OC)c(OC)c3)c(C(=O)OC)c2c1', 'satisfied'),
  ('Cc1ccnc(NC(=S)Nc2cccc(Cl)c2)c1', 'satisfied'),
  ('CC(=O)CC(C)(C)NC(=O)[C@@]1(O)CC[C@H]2[C@@H]3CCC4=CC(=O)CC[C@@H]4[C@H]3CC[C@@]21C', 'satisfied');
